- System: OVCAR-4 ovarian
- measurementDescription: NCI-60 one-dose screen, 48 h (100 = growth as untreated, 0 = no growth, -100 = all killed)
- particulars: 10 µM unless noted
This is part of a sample that, as a whole, favours compounds with a hit. Of some 83,000 tested, about 20% had one in any assay.
readoutName: growth (%)
Response body: numeric value in %, unit text excluded.

structure | assayTarget | readoutName | valueUnit | experimentalResult
CCNC(=O)Oc1ccc(/C(=C(\C)c2ccc(Cl)cc2)c2ccc(OCCN(CC)CC)cc2)cc1 | OVCAR-4 ovarian | growth | % | 40.5
COc1ccc(/C=C/C(=O)c2cc(O)ccc2O)cc1 | OVCAR-4 ovarian | growth | % | 136

Name the reported growth value associated with the compound CCN(CC)S(=O)(=O)c1ccc(OC)c(NC(=O)c2[nH]c(C)c3c2CCCCC3=O)c1
49.5

Name the reported growth value associated with the compound Cc1nn(-c2cc(=O)[nH]c3ccc(Cl)cc23)c(N)c1C#N
89.2

Name the reported growth value associated with the compound COc1cc(CNc2oc(-c3ccccc3)c(-c3ccccc3)c2C#N)cc(CN2CCN(C)CC2)c1O
55

Name the reported growth value associated with the compound COc1ccc(-c2nc3ccc(-c4nc5ccc(N6CCN(c7ccncc7)CC6)cc5[nH]4)cc3[nH]2)cc1OC
26.5

Name the reported growth value associated with the compound Cc1nn(-c2ccc(F)cc2)c2ncnc(Oc3ccc(NC(=O)Nc4ccc(Cl)c(C(F)(F)F)c4)cc3)c12
110

Name the reported growth value associated with the compound Oc1cccc2ccc(N/N=C/c3cc(CN4CCOCC4)c(O)c4ncccc34)nc12
14.2

Name the reported growth value associated with the compound Oc1cccc(-c2nc(N3CCOCC3)c3c4c(sc3n2)CCCC4)c1
45.9

---

- System: NCI/ADR-RES ovarian
- measurementDescription: NCI-60 one-dose screen, 48 h (100 = growth as untreated, 0 = no growth, -100 = all killed)
- particulars: 10 µM unless noted
- Experimental: Growth inhibition of the NCI/ADR-RES human […] tumor cell line is measured as a screen for anti-cancer activity. Cells are grown in 96 well plates and exposed to the test compound for 48 hours. Compounds are tested at a single concentration, which is 10^-5 M for most compounds. The reported endpoint is percent growth (GI% or GIPRCNT), where numbers from 0 - 100% represent growth inhibition, and numbers from -100% - 0 represent cell death. For example, a value of 40 represents 60% growth inhibition. […]
About 83,000 compounds went through this panel and 20% of them were active in at least one assay; those are over-represented in the sample as a whole. Active and inactive are the calls of the source. How the source made its calls: active means growth percent below 10; inactive means the rest.
readoutName: growth

Solved cases below.
molecule | growth
CC/C=C\C/C=C\C[C@H]1C/C=C2/C(=O)C=C[C@@H]2C/C=C\CCC(=O)O1 | 17.9% (inactive)
O=C1c2ccccc2C(=O)c2c(N=Nc3[nH]c(=S)[nH]c3O)cccc21 | 50% (inactive)
COc1ccc2[nH]cc(-c3noc(C(=O)c4cn(C)c5ccc(F)cc45)n3)c2c1 | 96% (inactive)
CCN(CC)c1ccc(/C=N\NC(=O)/C=C/C=C/c2ccc3c(c2)OCO3)c(O)c1 | 17.6% (inactive)
COC(=O)c1cccc(NC(=O)c2ccc(-c3cccc(N)c3)o2)c1 | 99.7% (inactive)
Cc1cc(C)nc(SC2=C(Nc3cc(Cl)ccc3O)C(=O)N(Cc3ccccc3)C2=O)n1 | 74.6% [30 µM] (inactive)

Name the reported growth value associated with the molecule CC(C)n1c(/C=C/[C@@H](O)C[C@@H](O)CC(=O)O)c(-c2ccc(F)cc2)c2ccccc21
22.1% (inactive)

Name the reported growth value associated with the molecule Cn1ccnc1C(=O)/C=C/c1ccc(CC(=O)Nc2ccccc2)cc1
13.5% (inactive)

Name the reported growth value associated with the molecule C=CC(=O)Nc1cccc(-c2nc(SC)nc(NCc3ccccc3)c2C#N)c1
48.3% (inactive)

Name the reported growth value associated with the molecule O=C(COc1ccc(/C=C2\CSc3ccccc3C2=O)cc1)Nc1nccs1
80.1% (inactive)

Name the reported growth value associated with the molecule CC(C)(C)CC(C)(C)c1ccc(OCCOCC[N+](C)(C)Cc2ccccc2)cc1
112% (inactive)
